# assayed-system: Protein-arginine deiminase type-2 (Homo sapiens) (UniProt Q9Y2J8)
# Sequence (Q9Y2J8 whole entry, looked up): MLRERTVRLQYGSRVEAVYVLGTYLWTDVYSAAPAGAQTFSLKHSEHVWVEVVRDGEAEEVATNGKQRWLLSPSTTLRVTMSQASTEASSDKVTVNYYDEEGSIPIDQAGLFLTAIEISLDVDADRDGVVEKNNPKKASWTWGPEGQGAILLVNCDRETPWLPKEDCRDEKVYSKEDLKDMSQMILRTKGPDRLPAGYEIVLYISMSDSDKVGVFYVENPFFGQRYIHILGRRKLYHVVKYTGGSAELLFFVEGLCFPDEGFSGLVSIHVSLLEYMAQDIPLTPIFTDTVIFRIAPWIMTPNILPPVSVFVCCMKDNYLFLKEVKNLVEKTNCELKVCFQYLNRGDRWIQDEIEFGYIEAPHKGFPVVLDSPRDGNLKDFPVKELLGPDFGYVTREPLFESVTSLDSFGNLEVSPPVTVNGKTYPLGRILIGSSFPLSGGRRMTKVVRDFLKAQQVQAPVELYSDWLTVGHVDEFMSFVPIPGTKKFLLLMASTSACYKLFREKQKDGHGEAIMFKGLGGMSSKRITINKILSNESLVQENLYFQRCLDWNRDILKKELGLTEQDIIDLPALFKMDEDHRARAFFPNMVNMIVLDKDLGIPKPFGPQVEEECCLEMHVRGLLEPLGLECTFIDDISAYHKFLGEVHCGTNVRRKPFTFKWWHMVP
# protocol: PAD1-4 enzyme inhibition potency, late-stage follow-up, selectivity assay for PAD4 inhibitor project, biochemical, colorimetric, BAEE substrate, recombinant PAD1-4 (AID 588438)
# test-context: recombinant PAD1-4, BAEE citrulline colorimetric absorbance; PAD2

{"smiles-entry": "COC(=O)c1cccc(-c2ccc3c(n2)C(=O)C(N)=CC3=O)n1", "assayed-system": "Protein-arginine deiminase type-2 (Homo sapiens) (UniProt Q9Y2J8)", "IC50": "420 nM"}
